# Experimental system: rat α-2,3-ST (Rattus norvegicus (Rat))
# Sequence (Q02734 whole entry): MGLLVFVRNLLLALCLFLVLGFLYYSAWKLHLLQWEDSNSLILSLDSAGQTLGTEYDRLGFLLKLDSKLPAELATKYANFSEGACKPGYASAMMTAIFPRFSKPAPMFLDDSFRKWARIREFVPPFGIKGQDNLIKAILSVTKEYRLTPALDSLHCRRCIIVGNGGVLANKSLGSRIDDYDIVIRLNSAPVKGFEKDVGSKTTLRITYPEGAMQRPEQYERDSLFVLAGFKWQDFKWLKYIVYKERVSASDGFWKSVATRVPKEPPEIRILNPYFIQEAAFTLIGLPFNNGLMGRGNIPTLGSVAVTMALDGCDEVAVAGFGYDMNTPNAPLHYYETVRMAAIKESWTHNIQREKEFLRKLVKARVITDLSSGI
Endpoint label: pKi
pKi here is simply -log10 of the concentration when that concentration is written in mol/L.

The molecule C[C@H](CCCn1cc(CCCC(=O)O)nn1)C1CC[C@H]2C3CC[C@@H]4C[C@H](O)CC[C@]4(C)C3CC[C@]12C (stereo partly shown) [Compound 22] on rat α-2,3-ST (Rattus norvegicus (Rat)): pKi was 5.66

###

# Experimental system: UniProtKB Q02734
# Assay notes: α-2,3-ST inhibition assay (IC50), RP-HPLC of sialylated disaccharide product
# Assay type: biochemical
# Reported conditions: α-2,3-ST, CMP-Neu5Ac substrate, triplicate; read-out: IC50
Endpoint label: IC50 (µM)
Give the value, in units of µM, as a plain number.

>  <Compound>
C[C@H](CCC(=O)O)C1CC[C@H]2C3CC[C@@H]4C[C@H](OC(=O)[C@H](N)CC(=O)O)CC[C@]4(C)C3CC[C@]12C (stereo partly drawn)

>  <Unit abbreviation>
µM

>  <Reported result>
6

$$$$
>  <Compound>
C[C@H](CCCO)C1CC[C@H]2C3CC[C@@H]4C[C@H](O)CC[C@]4(C)C3CC[C@]12C (stereo partly drawn)

>  <Unit abbreviation>
µM

>  <Reported result>
351

$$$$

Proceeding to the next compound to report its IC50.
response.value for CCOP(=O)(OCC)C(Cc1cn(CCC[C@@H](C)C2CC[C@H]3C4CC[C@@H]5C[C@H](O)CC[C@]5(C)C4CC[C@]23C)nn1)C(=O)O (stereo partly drawn) (field: IC50) = 7

###

# Experimental system: Rat liver α-2,3-ST (Rattus norvegicus (Rat))
# Assay notes: α-2,3-ST inhibition assay (IC50), RP-HPLC of sialylated disaccharide product
# Format: biochemical
# Reported conditions: steroid screen for α-2,3-ST inhibition; unit mM; read-out: IC50 value
Endpoint label: IC50
Give your result as the value with the unit written after it.

response.value for C[C@H](CCC(=O)O)[C@H]1CC[C@H]2[C@@H]3CC[C@@H]4C[C@H](O)CC[C@]4(C)[C@H]3CC[C@]12C [lithocholic acid] (field: IC50) = 0.021 mM

###

# Experimental system: Rat liver α-2,3-ST (Rattus norvegicus (Rat))
# Assay notes: α-2,3-ST inhibition assay (IC50), RP-HPLC of sialylated disaccharide product
# Assay type: biochemical
# Reported conditions: α-2,3-ST, CMP-Neu5Ac substrate, triplicate; read-out: IC50
# Method: Compound synthesis was carried out with the following materials according the following general procedures. All chemicals and buffers were purchased from Sigma, Aldrich, or Acros Organics; and all amino acids were purchased from Advanced Chemtech. CMP-Neu5Ac was synthesized starting with sialic acid (Traving & Schauer, Cell. Mol. Life Sci., 1998, 54:1330; Schwarzkopf et al., Proc. Natl. Acad. Sci. USA, 2002, 99:5267). […]
Endpoint label: pIC50
pIC50 here is simply -log10 of the concentration when that concentration is written in mol/L.

Illustrative cases are given below, each with its answer.
>  <Compound>
C[C@H](CCC(=O)NCC(=O)O)C1CC[C@H]2C3CC[C@@H]4C[C@H](O)CC[C@]4(C)C3CC[C@]12C (stereo partly drawn)

>  <pIC50>
4.60

$$$$
>  <Compound>
C[C@H](CCCn1cc(CCC(=O)O)nn1)C1CC[C@H]2C3CC[C@@H]4C[C@H](O)CC[C@]4(C)C3CC[C@]12C (stereo partly drawn)

>  <pIC50>
5.00

$$$$
>  <Compound>
C[C@H](CCC(=O)NCC(=O)O)C1CC[C@H]2C3CC[C@@H]4C[C@H](OC(=O)CCC(=O)O)CC[C@]4(C)C3CC[C@]12C (stereo partly drawn)

>  <pIC50>
4.66

$$$$

response.value for C[C@H](CCCn1cc(CC(N)C(=O)O)nn1)C1CC[C@H]2C3CC[C@@H]4C[C@H](O)CC[C@]4(C)C3CC[C@]12C (stereo partly drawn) (field: pIC50) = 4.08

response.value for C[C@H](CCCn1cc(CCCC(=O)O)nn1)C1CC[C@H]2C3CC[C@@H]4C[C@H](O)CC[C@]4(C)C3CC[C@]12C (stereo partly drawn) (field: pIC50) = 5.30
